tested on: LLC-PK1; test: Renoprotective activity in pig LLC-PK1 cells assessed as inhibition of cisplatin-induced oxidative stress by measuring cell viability up to 250 uM after 24 hrs by MTT assay; format: functional, cell-based; settings: Sus scrofa
Activity calls are given as the source filed them. No cut-off for these calls is given here.
Labels: active, inactive

smiles_repr	group
C/C=C1/[C@@H](n2cc(-c3ccc(F)cc3)nn2)C[C@H]2[C@@H]3CCC4=CC(=O)CC[C@]4(C)[C@H]3CC[C@]12C	active
C/C=C1/[C@@H](n2cc(CCCC#N)nn2)C[C@H]2[C@@H]3CCC4=CC(=O)CC[C@]4(C)[C@H]3CC[C@]12C	inactive
C/C=C1/[C@@H](n2cc(CCCC)nn2)C[C@H]2[C@@H]3CCC4=CC(=O)CC[C@]4(C)[C@H]3CC[C@]12C	inactive
C/C=C1/[C@@H](n2cc(-c3ccc(C)cc3)nn2)C[C@H]2[C@@H]3CCC4=CC(=O)CC[C@]4(C)[C@H]3CC[C@]12C	active
C/C=C1/[C@@H](n2cc(-c3ccccc3)nn2)C[C@H]2[C@@H]3CCC4=CC(=O)CC[C@]4(C)[C@H]3CC[C@]12C	active
